# credit: ChEMBL document CHEMBL6087465

tested on: HCCLM3; assay: Antiproliferative activity against human HCCLM3 cells cultured as 3D cells assessed as inhibition of colony formation at 25 uM incubated for 21 days by 3D soft-agar based microscopic analysis; format: functional, cell-based; settings: time 21.0 day
The source made the active and inactive calls. The calls are words filed in the database; no cut-off is given here.

{"compound_string": "CCc1nc(-c2ccc(OCC3CC3)cc2)sc1C(=O)O", "Activity": "Active"}
{"compound_string": "CNC(=O)c1cc(Oc2ccc(NC(=O)Nc3ccc(Cl)c(C(F)(F)F)c3)cc2)ccn1", "Activity": "Active"}
{"compound_string": "COCCOc1ccc(-c2nc(C)c(C(=O)O)s2)cc1", "Activity": "Active"}
{"compound_string": "Cc1nc(-c2ccc(N3CCOCC3)cc2)sc1C(=O)O", "Activity": "Active"}
{"compound_string": "CCOc1ccc(-c2nc(C)c(C(=O)O)s2)cc1", "Activity": "Active"}
{"compound_string": "Cc1nc(-c2ccc(OCCCF)cc2)sc1C(=O)O", "Activity": "Active"}
{"compound_string": "Cc1cc(-c2nc(C)c(C(=O)O)s2)cc(C)c1OCC1CC1", "Activity": "Active"}

###

This section presents compounds with their documented MRT last values.
assay: MRT (0 to t) in Sprague-Dawley rat at 10 mg/kg,iv administration by LC-MS/MS analysis; type: ADME, organism-based; conditions: in vivo
quantity_name: MRT last

{"compound_string": "Cc1nc(-c2ccc(N3CCOCC3)cc2)sc1C(=O)O", "result": "102 min"}
{"compound_string": "CCOc1ccc(-c2nc(C)c(C(=O)O)s2)cc1", "result": "6 min"}

###

experiment: Cmax in Sprague-Dawley rat at 25 mg/kg,po administration by LC-MS/MS analysis; assay type: ADME, organism-based; conditions: in vivo

{"compound_string": "CCOc1ccc(-c2nc(C)c(C(=O)O)s2)cc1", "Cmax / ng/mL": 2210}
{"compound_string": "Cc1nc(-c2ccc(N3CCOCC3)cc2)sc1C(=O)O", "Cmax / ng/mL": 19800}

###

assay: MRT (0 to infinity) in Sprague-Dawley rat at 10 mg/kg,iv administration by LC-MS/MS analysis; format: ADME, organism-based; settings: in vivo

{"compound_string": "CCOc1ccc(-c2nc(C)c(C(=O)O)s2)cc1", "MRT inf, h": 0.2}
{"compound_string": "Cc1nc(-c2ccc(N3CCOCC3)cc2)sc1C(=O)O", "MRT inf, h": 1.8}

###

Tmax values, listed per item
assay: Tmax in Sprague-Dawley rat at 10 mg/kg,iv administration by LC-MS/MS analysis; format: ADME, organism-based; conditions: in vivo

{"compound_string": "Cc1nc(-c2ccc(N3CCOCC3)cc2)sc1C(=O)O", "Tmax (min)": 4.8}
{"compound_string": "CCOc1ccc(-c2nc(C)c(C(=O)O)s2)cc1", "Tmax (min)": 6}

###

Measured AUC(0-inf) of individual entries
experiment: AUC (0 to infinity) in Sprague-Dawley rat at 10 mg/kg,iv administration by LC-MS/MS analysis; type: ADME, organism-based; conditions: in vivo
quantity_name: AUC(0-inf)

{"compound_string": "Cc1nc(-c2ccc(N3CCOCC3)cc2)sc1C(=O)O", "result": "37500 ng·h/mL"}
{"compound_string": "CCOc1ccc(-c2nc(C)c(C(=O)O)s2)cc1", "result": "9740 ng·h/mL"}

###

assay: Half life in Sprague-Dawley rat at 10 mg/kg,iv administration by LC-MS/MS analysis; type: ADME, organism-based; details: in vivo
quantity_name: half-life

{"compound_string": "CCOc1ccc(-c2nc(C)c(C(=O)O)s2)cc1", "quantity_name": "half-life", "result": "1.6 h"}
{"compound_string": "Cc1nc(-c2ccc(N3CCOCC3)cc2)sc1C(=O)O", "quantity_name": "half-life", "result": "3.57 h"}

###

experiment: Volume of distribution at steady state in Sprague-Dawley rat at 10 mg/kg,iv administration by LC-MS/MS analysis; type: ADME, organism-based; conditions: in vivo, read-out: Vdss

{"compound_string": "Cc1nc(-c2ccc(N3CCOCC3)cc2)sc1C(=O)O", "Vd": "0.496 L/kg"}
{"compound_string": "CCOc1ccc(-c2nc(C)c(C(=O)O)s2)cc1", "Vd": "0.161 L/kg"}

###

assay: Oral bioavailability in Sprague-Dawley rat at 25 mg/kg administration by LC-MS/MS analysis; assay type: ADME, organism-based; conditions: in vivo
quantity_name: bioavailability (%)

{"compound_string": "Cc1nc(-c2ccc(N3CCOCC3)cc2)sc1C(=O)O", "quantity_name": "bioavailability", "uom": "%", "measured_number": 53.9}
{"compound_string": "CCOc1ccc(-c2nc(C)c(C(=O)O)s2)cc1", "quantity_name": "bioavailability", "uom": "%", "measured_number": 11}

###

assay: Cmax in Sprague-Dawley rat at 10 mg/kg,iv administration by LC-MS/MS analysis; format: ADME, organism-based; conditions: in vivo
quantity_name: Cmax (ng/mL)

{"compound_string": "CCOc1ccc(-c2nc(C)c(C(=O)O)s2)cc1", "uom": "ng/mL", "measured_number": 34900}
{"compound_string": "Cc1nc(-c2ccc(N3CCOCC3)cc2)sc1C(=O)O", "uom": "ng/mL", "measured_number": 45900}

###

Entries and their Tmax values follow.
assay: Tmax in Sprague-Dawley rat at 25 mg/kg,po administration by LC-MS/MS analysis; assay type: ADME, organism-based; conditions: in vivo

{"compound_string": "CCOc1ccc(-c2nc(C)c(C(=O)O)s2)cc1", "Tmax": "18 min"}
{"compound_string": "Cc1nc(-c2ccc(N3CCOCC3)cc2)sc1C(=O)O", "Tmax": "25.2 min"}

###

assay: Clearance in Sprague-Dawley rat at 10 mg/kg,iv administration by LC-MS/MS analysis; assay type: ADME, organism-based; details: in vivo

{"compound_string": "CCOc1ccc(-c2nc(C)c(C(=O)O)s2)cc1", "clearance / mL/min/kg": 17.1}
{"compound_string": "Cc1nc(-c2ccc(N3CCOCC3)cc2)sc1C(=O)O", "clearance / mL/min/kg": 4.6}

###

test: Half life in Sprague-Dawley rat at 25 mg/kg,po administration by LC-MS/MS analysis; type: ADME, organism-based; conditions: in vivo
Measured half-life of individual entries

{"compound_string": "Cc1nc(-c2ccc(N3CCOCC3)cc2)sc1C(=O)O", "half-life (min)": 197}
{"compound_string": "CCOc1ccc(-c2nc(C)c(C(=O)O)s2)cc1", "half-life (min)": 162}

###

# AUC(0-inf) annotations
assay: AUC (0 to infinity) in Sprague-Dawley rat at 25 mg/kg,po administration by LC-MS/MS analysis; type: ADME, organism-based; conditions: in vivo

{"compound_string": "Cc1nc(-c2ccc(N3CCOCC3)cc2)sc1C(=O)O", "AUC(0-inf) / ng·h/mL": 50600}
{"compound_string": "CCOc1ccc(-c2nc(C)c(C(=O)O)s2)cc1", "AUC(0-inf) / ng·h/mL": 3080}
